- system: Cathepsin D (Bos taurus)
- Sequence (P80209 whole entry): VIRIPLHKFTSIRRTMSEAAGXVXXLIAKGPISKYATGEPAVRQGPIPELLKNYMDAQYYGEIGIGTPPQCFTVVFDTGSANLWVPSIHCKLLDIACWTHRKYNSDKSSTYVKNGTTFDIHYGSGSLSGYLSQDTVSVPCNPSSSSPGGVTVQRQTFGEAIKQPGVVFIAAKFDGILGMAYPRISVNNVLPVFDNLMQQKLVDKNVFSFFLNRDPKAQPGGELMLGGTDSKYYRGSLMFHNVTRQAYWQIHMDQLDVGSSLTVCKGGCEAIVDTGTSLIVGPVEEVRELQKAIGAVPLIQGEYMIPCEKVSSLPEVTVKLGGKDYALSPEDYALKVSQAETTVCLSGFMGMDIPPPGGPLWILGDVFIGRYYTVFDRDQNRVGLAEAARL
pIC50: −log10 of the molar value.
quantity-name: pIC50

In [3]: df
Out[3]:
                                   compound                    system  obs_value
0  CCC[C@@H](OP(=O)(CCCc1ccccc1)OCC)C(=O)N[C@@H](CC1CCCCC1)[C@@H](O)[C@@H](O)C1CC1 (stereo in doubt; 8i)  Cathepsin D (Bos taurus)     < 5.00
1  CCCCNC(=O)[C@H](C)C[C@H](O)[C@H](CC1CCCCC1)NC(=O)[C@H](CCCC)OP(=O)(CCCc1ccccc1)OCC (stereo in doubt; 7k)  Cathepsin D (Bos taurus)       5.55
2  CCCCNC(=O)[C@H](C)C[C@H](O)[C@H](CC1CCCCC1)NC(=O)[C@@H](C)OP(=O)(O)CCCc1ccccc1  Cathepsin D (Bos taurus)     < 5.00
3  CCCCNC(=O)[C@H](C)C[C@H](O)[C@H](CC1CCCCC1)NC(=O)[C@H](CCCC)OP(=O)(O)CCCc1ccccc1  Cathepsin D (Bos taurus)     < 5.00
4  CCCCNC(=O)[C@H](C)C[C@H](O)[C@H](CC1CCCCC1)NC(=O)[C@@H](CCCC)OP(=O)(CCCc1ccccc1)OCC (stereo in doubt; 7j)  Cathepsin D (Bos taurus)     < 5.00
5  CCC[C@@H](OP(=O)(CCCc1ccccc1)OCC)C(=O)N[C@@H](CC1CCCCC1)[C@@H](O)[C@@H](O)C1CC1 (stereo in doubt; 8h)  Cathepsin D (Bos taurus)       5.38
